# SUBJECT OF TEST: T1, human AMHRII (anti-Mullerian hormone receptor type 2) (human, UniProt Q16671 18-573)
# T1 construct: whole, on cells; also called AMHR2; human AMHR2
# T1 sequence (looked up): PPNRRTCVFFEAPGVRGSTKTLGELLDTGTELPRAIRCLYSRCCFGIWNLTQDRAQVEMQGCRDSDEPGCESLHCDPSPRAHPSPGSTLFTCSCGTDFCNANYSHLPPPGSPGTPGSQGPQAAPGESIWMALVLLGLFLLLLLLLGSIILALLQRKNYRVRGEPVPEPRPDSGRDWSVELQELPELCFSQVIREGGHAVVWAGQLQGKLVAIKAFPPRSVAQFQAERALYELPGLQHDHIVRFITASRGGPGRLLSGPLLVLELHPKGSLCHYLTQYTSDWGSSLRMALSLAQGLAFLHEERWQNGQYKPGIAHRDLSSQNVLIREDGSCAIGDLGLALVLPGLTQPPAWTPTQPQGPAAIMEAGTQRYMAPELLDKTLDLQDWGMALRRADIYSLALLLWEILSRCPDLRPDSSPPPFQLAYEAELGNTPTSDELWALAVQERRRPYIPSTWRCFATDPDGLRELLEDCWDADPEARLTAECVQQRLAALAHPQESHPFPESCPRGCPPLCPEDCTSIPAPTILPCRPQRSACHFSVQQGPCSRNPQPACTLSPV
# ASSAY NOTES: FACS on Rko cells over-expressing human AMHR2
RESULT TYPE: Top (MFI)

- BINDER: "31D9B3 VH1.3-VL2 hIgG1 (antibody, V domains shown, Humanized, PTM de-risked (VH G55Q), human IgG1; also called 31D9B3 VH1.3-VL2 hlgG1) VH: QVQLVQSGAEVKKPGASVKVSCKASGYTFTDYWVSWVRQAPGQGLEWMGEIYPKNQVSNFNEKFKGRVTMTTDTSTSTAYMELRSLRSDDTAVYYCARQRDYWGQGTLVTVSS VL: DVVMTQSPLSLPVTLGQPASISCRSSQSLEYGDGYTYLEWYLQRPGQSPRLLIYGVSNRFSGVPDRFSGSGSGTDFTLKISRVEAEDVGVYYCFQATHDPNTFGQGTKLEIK"
  RESULT TYPE: "Top (MFI)"
  TEST VALUE: 17900
- BINDER: "xi108F3D1E9 hIgG1 (antibody, V domains shown, Murine variable domains in human chimeric format, human IgG1; also called xi108F3D1E9 hlgG1; 108F3D1E9 (chimeric)) VH: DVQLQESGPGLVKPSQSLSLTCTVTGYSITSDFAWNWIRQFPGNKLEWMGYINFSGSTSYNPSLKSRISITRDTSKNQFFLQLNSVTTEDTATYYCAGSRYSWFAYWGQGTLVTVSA VL: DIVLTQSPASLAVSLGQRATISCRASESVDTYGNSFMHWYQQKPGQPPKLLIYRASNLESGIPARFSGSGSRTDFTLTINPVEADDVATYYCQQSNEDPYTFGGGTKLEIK"
  RESULT TYPE: "Top (MFI)"
  TEST VALUE: 18700
- BINDER: "31D9B3 VH1.2-VL2.2 hIgG1 (antibody, V domains shown, Humanized, PTM de-risked, human IgG1; also called 31D9B3 VH1.2-VL2.2 hlgG1) VH: QVQLVQSGAEVKKPGASVKVSCKASGYTFTDYWVSWVRQAPGQGLEWMGEIYPKNDVSNFNEKFKGRVTMTTDTSTSTAYMELRSLRSDDTAVYYCARQRDYWGQGTLVTVSS VL: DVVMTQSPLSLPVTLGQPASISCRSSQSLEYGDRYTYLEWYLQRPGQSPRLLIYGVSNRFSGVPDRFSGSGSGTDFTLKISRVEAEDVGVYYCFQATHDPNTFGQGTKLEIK"
  RESULT TYPE: "Top (MFI)"
  TEST VALUE: 16300
